# EXPERIMENTAL_TARGET: IDO (Homo sapiens, UniProt P14902)
# Construct: selective against A172+IFNg cells (high IDO expressing cells)
# Sequence (P14902 whole entry): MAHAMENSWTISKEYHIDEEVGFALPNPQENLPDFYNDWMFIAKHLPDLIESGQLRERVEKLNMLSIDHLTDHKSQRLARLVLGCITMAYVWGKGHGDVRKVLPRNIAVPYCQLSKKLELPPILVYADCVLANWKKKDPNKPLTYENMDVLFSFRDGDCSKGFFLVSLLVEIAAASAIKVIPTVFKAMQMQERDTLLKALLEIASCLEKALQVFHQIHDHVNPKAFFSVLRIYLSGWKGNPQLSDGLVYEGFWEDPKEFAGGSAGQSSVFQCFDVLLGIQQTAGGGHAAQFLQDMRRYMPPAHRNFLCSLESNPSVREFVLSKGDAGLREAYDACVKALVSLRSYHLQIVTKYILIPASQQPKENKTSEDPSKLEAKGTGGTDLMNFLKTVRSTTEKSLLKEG
# MEASUREMENT_NOTES: IDO cell assay (NFK GreenScreen, A172+IFNg cells)
# CONDITION_PARAMETERS: A172 cells + 100 ng/ml IFNγ (high IDO expressing), 100 uM tryptophan, 24 hours; TDO selectivity table; read-out: IDO cell Fluor EC50
REPORTED_PROPERTY: EC50 (nM)

INSERT INTO results (compound, experimental_target, reported_measurement) VALUES
  ('NC(=O)c1ccc2c(c1)C(O)C(C1c3ccccc3-c3cncn31)CC2 (single isomer, unassigned) [Example 122a]', 'IDO (Homo sapiens, UniProt P14902)', 2600);

A = O[C@@H]1CC[C@H]1[C@H]1c2ccccc2-c2cncn21 [Example 01d]
B = OC1c2cnncc2CCC1C1c2ccccc2-c2cncn21 (single isomer, unassigned) [Example 112b]
Qu. Lower EC50: A or B ? To answer, give the label that identifies your chosen option.
Ans. A
(A: 2400 nM, B: 15000 nM)

###

# EXPERIMENTAL_TARGET: TDO2 (Homo sapiens)
# Construct: decreased levels of NFK in SW48 cells (high TDO expressing cells)
# MEASUREMENT_NOTES: TDO2 cell assay (NFK GreenScreen, SW48 cells)
# Type: cell-based
# CONDITION_PARAMETERS: SW48 cells (high TDO expressing), 200 uM tryptophan, 24 hours; Table 3; read-out: TDO2 Cell Fluor EC50
REPORTED_PROPERTY: EC50 (µM)

# annotated cases, reported EC50 shown
INSERT INTO measurements (compound, experimental_target, units_symbol, reported_measurement) VALUES
  ('O[C@H]1CCC[C@H]1[C@H]1c2ccccc2-c2cncn21 [Example 02b]', 'TDO2 (Homo sapiens)', 'µM', 0.12),
  ('N#Cc1cnc2c(c1)CCC(C1c3ccccc3-c3cncn31)C2O (single isomer, unassigned) [Example 107e]', 'TDO2 (Homo sapiens)', 'µM', 23),
  ('CS(=O)(=O)N1CCC(O)C(C2c3ccccc3-c3cncn32)CC1 (single isomer, unassigned) [Example 92d]', 'TDO2 (Homo sapiens)', 'µM', 0.24),
  ('Nc1ncc2c(n1)CCC(C1c3ccccc3-c3cncn31)C2O (single isomer, unassigned) [Example 111c]', 'TDO2 (Homo sapiens)', 'µM', 7.8),
  ('N#CCN1CCC(O)C(C2c3ccccc3-c3cncn32)C1 (single isomer, unassigned) [Example 58c]', 'TDO2 (Homo sapiens)', 'µM', 20);

a = CCS(=O)(=O)N1CC(O)C(C2c3ccccc3-c3cncn32)C1 (single isomer, unassigned) [Example 40a]
b = O[C@@H]1c2ncccc2CC[C@H]1[C@H]1c2ccccc2-c2cncn21 [Example 63a]
Qu. Just tell me: smaller EC50 value, a or b ? Kindly give the label for the entry you pick.
Ans. b

###

# EXPERIMENTAL_TARGET: TDO2 (Homo sapiens, UniProt P48775)
# Construct: decreased levels of NFK in SW48 cells (high TDO expressing cells)
# Sequence (P48775 whole entry): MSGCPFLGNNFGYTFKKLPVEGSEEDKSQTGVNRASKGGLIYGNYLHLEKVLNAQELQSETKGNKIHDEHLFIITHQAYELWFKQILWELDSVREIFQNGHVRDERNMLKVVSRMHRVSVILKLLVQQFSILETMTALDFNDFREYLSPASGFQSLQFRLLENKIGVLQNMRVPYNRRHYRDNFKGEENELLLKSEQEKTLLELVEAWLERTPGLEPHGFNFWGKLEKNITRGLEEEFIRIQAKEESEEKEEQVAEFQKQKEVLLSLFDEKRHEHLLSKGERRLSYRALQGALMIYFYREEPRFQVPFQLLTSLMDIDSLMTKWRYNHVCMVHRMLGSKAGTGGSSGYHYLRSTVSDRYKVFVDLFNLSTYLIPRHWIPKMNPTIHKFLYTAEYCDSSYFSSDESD
# MEASUREMENT_NOTES: TDO2 cell assay (NFK GreenScreen, SW48 cells)
# Format: cell-based
# CONDITION_PARAMETERS: SW48 cells (high TDO expressing), 200 uM tryptophan, 24 hours; Table 3; read-out: TDO2 Cell Fluor EC50
pEC50: −log10 of the molar value.
REPORTED_PROPERTY: pEC50

INSERT INTO measurements (molecule, reported_measurement) VALUES
  ('NS(=O)(=O)c1ccc2c(c1)CCC(C1c3ccccc3-c3cncn31)C2O (single isomer, unassigned) [Example 100c]', 5.13);

A = Cc1ccc2c(c1)-c1cncn1C2C1COCC1O (single isomer, unassigned) [Example 171c]
B = Nc1cc2n(n1)CC[C@@H]([C@H]1c3ccccc3-c3cncn31)[C@@H]2O [Example 161b]
C = O[C@@H]1c2c(F)cnn2CC[C@H]1[C@H]1c2ccccc2-c2cncn21 (single isomer, unassigned) [Example 151d]
Qu. Rank entries according to their pEC50, from the largest number down. // respond by listing labels in the order requested
Ans. C, B, A

Values were extracted from patent US12583858B2.
